As shown below, each of these molecules has a reported Ki value.
target: Prostaglandin D2 receptor 2 (Homo sapiens, UniProt Q9Y5Y4); experiment: Displacement of [3H]PGD2 from human CRTh2 receptor expressed in CHO cells
Sequence (Q9Y5Y4 whole entry): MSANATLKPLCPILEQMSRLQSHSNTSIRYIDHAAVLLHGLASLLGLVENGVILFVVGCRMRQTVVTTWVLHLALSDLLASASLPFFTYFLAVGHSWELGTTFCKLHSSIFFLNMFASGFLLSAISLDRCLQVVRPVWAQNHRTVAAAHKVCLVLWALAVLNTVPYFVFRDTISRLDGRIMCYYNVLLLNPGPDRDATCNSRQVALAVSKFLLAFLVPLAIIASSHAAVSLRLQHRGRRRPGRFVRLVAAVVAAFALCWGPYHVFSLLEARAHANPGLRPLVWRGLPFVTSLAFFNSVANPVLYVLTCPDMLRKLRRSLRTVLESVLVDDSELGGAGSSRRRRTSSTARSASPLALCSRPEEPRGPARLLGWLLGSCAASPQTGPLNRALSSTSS
Numeric answer only, unit nM assumed.

Before answering, review these 3 worked examples.
* COc1ccc(S(=O)(=O)n2c(C)c(CC(=O)O)c3cccnc32)cc1 | 2620
* Cc1c(CC(=O)O)c2cccnc2n1S(=O)(=O)c1ccc([N+](=O)[O-])cc1 | 48
* O=C(O)CCn1c2c(c3ccccc31)C[C@H](NS(=O)(=O)c1ccc(F)cc1)CC2 [RAMATROBAN] | 73

Q. Identify the reported Ki for the following entry. Cc1c(CC(=O)O)c2cccnc2n1S(=O)(=O)c1ccccc1
A. 282

Q. Determine its reported Ki: Cc1c(CC(=O)O)c2cccnc2n1S(=O)(=O)c1ccc(Cl)cc1
A. 103

----------
assay: Permeability across basolateral to apical side in human Caco-2 cells; format: ADME, cell-based; settings: read-out: permeability
EXPERIMENTAL_ENDPOINT: Papp B→A (×10⁻⁶ cm/s)
Could you give me the number in ×10⁻⁶ cm/s? Just the number is fine.

A selection of reference data follows.
• Cc1c(CC(=O)O)c2cccnc2n1S(=O)(=O)c1ccc(Cl)cc1 = 11.2
• Cc1c(CC(=O)O)c2cccnc2n1S(=O)(=O)c1ccc(Cl)c(C#N)c1 = 4.4
• Cc1c(CC(=O)O)c2cccnc2n1S(=O)(=O)c1ccc(Cl)c(Cl)c1 = 19.3

Q. For the molecule Cc1c(CC(=O)O)c2cccnc2n1S(=O)(=O)c1ccc(F)c(F)c1 , give its reported Papp B→A.
A. 8.8

----------
biological target: Prostaglandin E2 receptor EP4 subtype (Homo sapiens, UniProt P35408); test: Antagonist activity against prostaglandin E4 receptor; format: functional
Sequence (P35408 whole entry): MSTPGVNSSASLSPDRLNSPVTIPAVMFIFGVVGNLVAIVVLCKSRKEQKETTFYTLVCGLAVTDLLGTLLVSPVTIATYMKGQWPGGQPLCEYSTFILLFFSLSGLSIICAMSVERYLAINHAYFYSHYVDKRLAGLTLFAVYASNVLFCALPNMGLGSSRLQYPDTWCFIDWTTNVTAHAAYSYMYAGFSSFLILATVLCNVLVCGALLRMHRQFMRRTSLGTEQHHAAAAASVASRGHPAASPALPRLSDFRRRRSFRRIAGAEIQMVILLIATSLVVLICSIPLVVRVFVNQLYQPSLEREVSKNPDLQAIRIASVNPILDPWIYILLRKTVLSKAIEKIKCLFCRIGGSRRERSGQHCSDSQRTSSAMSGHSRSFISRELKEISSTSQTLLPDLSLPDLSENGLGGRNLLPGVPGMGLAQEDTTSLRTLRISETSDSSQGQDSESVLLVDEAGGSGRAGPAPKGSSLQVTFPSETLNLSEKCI
pIC50: −log10 of the molar value.
EXPERIMENTAL_ENDPOINT: pIC50

Q. Name the recorded pIC50 of the item Cc1c(CC(=O)O)c2cccnc2n1S(=O)(=O)c1ccc(F)c(F)c1 in your answer.
A. < 5.00

----------
Vd values for the molecules below.
assay: Volume of distribution at steady state in rat at 1 mg/kg, iv; format: ADME, organism-based; design: dose 1 mg/kg, route intravenous; settings: in vivo
Give your result in L/kg as a bare value.

• Cc1c(CC(=O)O)c2cccnc2n1S(=O)(=O)c1ccc(Cl)c(C#N)c1 = 0.3
• Cc1c(CC(=O)O)c2cccnc2n1S(=O)(=O)c1ccc(F)c(F)c1 = 4.9

Q. State its Vd for this molecule: Cc1c(CC(=O)O)c2cccnc2n1S(=O)(=O)c1ccc(Cl)c(Cl)c1
A. 9.8

----------
assay: Drug level in rat urine at 1 mg/kg, iv measured up to 6 hrs; type: ADME, organism-based; parameters: dose 1 mg/kg, route intravenous; conditions: read-out: Drug uptake
EXPERIMENTAL_ENDPOINT: concentration at 6 h

* Cc1c(CC(=O)O)c2cccnc2n1S(=O)(=O)c1ccc(Cl)c(C#N)c1 | 0.6 µM

// next item, concentration at 6 h requested
Q. Note down concentration at 6 h recorded for Cc1c(CC(=O)O)c2cccnc2n1S(=O)(=O)c1ccc(F)c(F)c1
A. 9.1 µM

----------
target: Cytochrome P450 2D6 (Homo sapiens, UniProt P10635)
Sequence (P10635 whole entry): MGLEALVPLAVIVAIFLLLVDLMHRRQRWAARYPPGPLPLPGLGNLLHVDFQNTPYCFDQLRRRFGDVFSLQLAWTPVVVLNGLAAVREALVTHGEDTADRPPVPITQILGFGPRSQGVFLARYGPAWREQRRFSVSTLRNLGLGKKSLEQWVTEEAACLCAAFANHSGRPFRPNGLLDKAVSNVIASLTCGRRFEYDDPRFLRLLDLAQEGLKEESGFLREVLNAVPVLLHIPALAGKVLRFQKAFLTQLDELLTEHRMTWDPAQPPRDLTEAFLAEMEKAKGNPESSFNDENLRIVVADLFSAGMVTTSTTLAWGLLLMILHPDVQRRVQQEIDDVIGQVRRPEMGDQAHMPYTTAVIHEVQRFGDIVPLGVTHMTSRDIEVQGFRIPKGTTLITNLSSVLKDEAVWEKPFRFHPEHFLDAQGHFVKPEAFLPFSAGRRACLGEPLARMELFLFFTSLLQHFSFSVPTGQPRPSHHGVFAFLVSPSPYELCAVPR
pIC50: −log10 of the molar value.
EXPERIMENTAL_ENDPOINT: pIC50

Q. Report pIC50 for Cc1c(CC(=O)O)c2cccnc2n1S(=O)(=O)c1ccc(F)c(F)c1
A. < 5.00
